test: Stability of compound in acetonitrile/water at 1:1 ratio at pH 1.5 assessed as compound degradation after 5 hrs by HPLC analysis; assay type: physicochemical; conditions: acetonitrile/water 1:1, pH 1.5; read-out: Drug degradation
recorded_metric: degraded at 5 h (%)

[1] COc1ccc2cc3[n+](cc2c1OCc1cn([C@H]2O[C@H](CO)[C@@H](O)[C@H](O)[C@@H]2O)nn1)CCc1cc2c(cc1-3)OCO2.[Cl-]
[2] COc1ccc2cc3[n+](cc2c1OC)CCc1cc2c(cc1-3)OCO2.[Cl-] [BERBERINE CHLORIDE]
-- ask Name the one with the greater degraded at 5 h value, either 1 or 2 as given. Respond with the label that goes with your answer.
-- reply 2
(2: 1.8%, 1: 0.3%)
